The measurements presented in this section are drawn from ChEMBL document CHEMBL3861994.

- experiment-summary: Inhibition of Porphyromonas gingivalis ATCC 33277 MFA interaction with Streptococcus gordonii DL1(1) antigen 1/2 assessed as inhibition of 5(6)-carboxyfluorescein N-hydroxysuccinimide ester-labeled Porphyromonas gingivalis ATCC 33277 cell adhesion to hexidium iodide-labeled Streptococcus gordonii DL1(1) by measuring inhibition of biofilm formation preincubated with Porphyromonas gingivalis ATCC 33277 for 30 mins followed by addition to Streptococcus gordonii DL1(1) culture measured after 22 hrs by laser scanning confocal microscopy
- Type: cell-based
Note to self: IC50 under 30 µM means true, ties and anything higher get false.

smiles-notation	category-label
COc1ccc2cc(-c3cn(Cc4nc(-c5ccc(Br)cc5)c(-c5ccc(Br)cc5)o4)nn3)ccc2c1	false
Fc1ccc(-c2nc(-c3ccc(-n4cc(-c5cccnc5)nn4)cc3)oc2-c2ccc(F)cc2)cc1	true
CC(C)CCNc1nc(NCCC(C)C)nc(-c2cn(Cc3nc(-c4ccccc4)c(-c4ccccc4)o3)nn2)n1	false
COc1ccc(-c2nc(-c3cccc(-n4cc(-c5cc(C(F)(F)F)cc(C(F)(F)F)c5)nn4)c3)oc2-c2ccc(OC)cc2)cc1	false
Brc1ccc(-c2nc(-c3cccc(-n4cc(-c5cccnc5)nn4)c3)oc2-c2ccc(Br)cc2)cc1	false
COc1ccc(-c2nc(-c3cccc(-n4cc(-c5cccnc5)nn4)c3)oc2-c2ccc(OC)cc2)cc1	false
Fc1cccc(-c2cn(Cc3nc(-c4ccc(Br)cc4)c(-c4ccc(Br)cc4)o3)nn2)c1	false
Clc1ccc(-c2nc(Cn3cc(-c4cccnc4)nn3)oc2-c2ccc(Cl)cc2)cc1	false
COc1ccc(-c2nc(-c3cccc(-n4cc(-c5ccc6cc(OC)ccc6c5)nn4)c3)oc2-c2ccc(OC)cc2)cc1	true
Fc1cccc(-c2cn(Cc3nc(-c4ccc(Cl)cc4)c(-c4ccc(Cl)cc4)o3)nn2)c1	false
Brc1ccc(-c2nc(Cn3cc(-c4cccnc4)nn3)oc2-c2ccc(Br)cc2)cc1	false
Fc1ccc(-c2cn(Cc3nc(-c4ccccc4)c(-c4ccccc4)o3)nn2)cc1	false
COc1ccc2cc(-c3cn(-c4ccc(-c5nc(-c6ccc(Cl)cc6)c(-c6ccc(Cl)cc6)o5)cc4)nn3)ccc2c1	false
Fc1ccc(-c2nc(-c3ccc(-n4cc(-c5cccc(F)c5)nn4)cc3)oc2-c2ccc(F)cc2)cc1	false
COc1ccc(-c2nc(-c3cccc(-n4cc(-c5ccccc5OC)nn4)c3)oc2-c2ccc(OC)cc2)cc1	true
Fc1ccc(-c2nc(Cn3cc(-c4cccc(F)c4)nn3)oc2-c2ccc(F)cc2)cc1	false

----------
Below is a list of entries, each paired with its recorded inhibition at 60 µM value.
- Test system: Streptococcus gordonii
- experiment-summary: Growth inhibition of Streptococcus gordonii at 60 uM measured after 24 hrs
- run-parameters: read-out: GI
measurement-label: inhibition at 60 µM (%)

smiles-notation	reported-value
CCCCCc1ccc(-c2cn(Cc3nc(-c4ccccc4)c(-c4ccccc4)o3)nn2)cc1	6.6
CC(C)CCNc1nc(NCCC(C)C)nc(-c2cn(Cc3nc(-c4ccccc4)c(-c4ccccc4)o3)nn2)n1	6.8
COc1ccc2cc(-c3cn(Cc4nc(-c5ccc(Cl)cc5)c(-c5ccc(Cl)cc5)o4)nn3)ccc2c1	-3.8
COc1ccc2cc(-c3cn(Cc4nc(-c5ccc(Br)cc5)c(-c5ccc(Br)cc5)o4)nn3)ccc2c1	-8.6
COc1ccc2cc(-c3cn(Cc4nc(-c5ccc(F)cc5)c(-c5ccc(F)cc5)o4)nn3)ccc2c1	0.2
COc1ccccc1-c1cn(Cc2nc(-c3ccc(Br)cc3)c(-c3ccc(Br)cc3)o2)nn1	11.1
COc1ccccc1-c1cn(Cc2nc(-c3ccc(Cl)cc3)c(-c3ccc(Cl)cc3)o2)nn1	6.6
